- STUDY_TARGET: K-Ras G12C(GMP-PNP) binding to BRAF RBD (Homo sapiens (Human), UniProt P01116+P62937, G12C)
- Sequence (P01116 other isoform, or with tags, fused parts or gaps G12C): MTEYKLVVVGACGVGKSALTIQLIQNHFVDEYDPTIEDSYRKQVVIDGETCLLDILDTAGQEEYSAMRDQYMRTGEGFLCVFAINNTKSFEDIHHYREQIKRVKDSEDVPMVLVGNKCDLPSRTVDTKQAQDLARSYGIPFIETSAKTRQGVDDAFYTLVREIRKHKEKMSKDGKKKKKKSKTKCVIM
- Sequence (P62937 whole entry): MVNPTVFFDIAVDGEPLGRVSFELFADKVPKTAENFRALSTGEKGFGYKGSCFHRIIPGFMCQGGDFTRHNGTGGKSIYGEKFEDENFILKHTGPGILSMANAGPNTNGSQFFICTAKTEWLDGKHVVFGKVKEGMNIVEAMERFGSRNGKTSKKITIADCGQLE
- ASSAY_EXPLANATION: Disruption of BRAF RBD interaction with K-Ras (FRET / MOA assay), K-Ras G12C
- Type: biochemical
- MEASUREMENT_PARAMETERS: read-out: KRAS G12C FRET IC50
ATTRIBUTE_MEASURED: IC50

Some solved entries appear below for comparison.
COMPOUND	IC50
CCn1c(-c2cccnc2[C@H](C)OC)c2c3cc(ccc31)-c1cnc(o1)C[C@H](NC(=O)[C@@H](COC1CN(C(=O)C#CC(C)(C)N(C)C)C1)C(C)C)C(=O)N1CCC[C@H](N1)C(=O)OCCC2 (atropisomer, axis not shown) [Compound A649]	10 to 100 nM
CCn1c(-c2cccnc2[C@H](C)OC)c2c3cc(ccc31)-c1cc(C#N)cc(c1)C[C@H](NC(=O)[C@H](C(C)C)N(C)C(C)=O)C(=O)N1CCC[C@H](N1)C(=O)OCC(C)(C)C2 [Compound A430]	100 to 1000 nM

We next turn to a different compound, shown below.
// IC50 lookup, compound = CCn1c(-c2cccnc2[C@H](C)OC)c2c3cc(ccc31)-c1cc(O)cc(c1)C[C@H](NC(=O)[C@H](C(C)C)N(C)C(=O)C1CN3CCCN1CC3)C(=O)N1CCC[C@H](N1)C(=O)OCC(C)(C)C2 (stereo partly drawn) [Compound A404] , result: 100 to 1000 nM

----------
Listing of entries alongside the reported IC50.
- STUDY_TARGET: KRAS G12D (Homo sapiens (Human), UniProt P01116+P62937, G12D)
- Sequence (P01116 other isoform, or with tags, fused parts or gaps G12D, one chain of several): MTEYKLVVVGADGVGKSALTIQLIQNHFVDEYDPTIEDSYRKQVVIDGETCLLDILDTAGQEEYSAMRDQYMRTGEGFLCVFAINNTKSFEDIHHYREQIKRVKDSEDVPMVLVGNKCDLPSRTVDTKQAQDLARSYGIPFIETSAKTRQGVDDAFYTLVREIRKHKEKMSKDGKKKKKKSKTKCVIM
- ASSAY_EXPLANATION: Ras-Raf disruption/FRET/MOA assay (BRAF RBD, Cyclophilin A)
- Type: biochemical
- MEASUREMENT_PARAMETERS: read-out: KRAS G12D FRET IC50

SMILES_STRUCTURE	RESULT
CCn1c(-c2cccnc2[C@H](C)OC)c2c3cc(ccc31)-c1csc(n1)C[C@H](NC(=O)[C@H](C(C)C)N(C)C(=O)N1C[C@@H]3C[C@H]1CN3C)C(=O)N1CCC[C@H](N1)C(=O)OCC(C)(C)C2	100 to 1000 nM
CCn1c(-c2cnccc2COC)c2c3cc(ccc31)-c1cc(O)cc(c1)C[C@H](NC(=O)[C@H](C(C)C)N(C)C(=O)[C@H]1CCN(C(=O)CO)C1)C(=O)N1CCC[C@H](N1)C(=O)OCC(C)(C)C2	1000 to 10000 nM

We next turn to a different compound, shown below.
// IC50 lookup, compound = CCn1c(-c2cnccc2COC)c2c3cc(ccc31)-c1cc(O)cc(c1)C[C@H](NC(=O)[C@H](C(C)C)N(C)C(=O)c1ncc[nH]1)C(=O)N1CCC[C@H](N1)C(=O)OCC(C)(C)C2 , result: 1000 to 10000 nM

----------
- STUDY_TARGET: KRAS G12V (Homo sapiens (Human), UniProt P01116+P62937, G12V)
- Sequence (P01116 other isoform, or with tags, fused parts or gaps G12V): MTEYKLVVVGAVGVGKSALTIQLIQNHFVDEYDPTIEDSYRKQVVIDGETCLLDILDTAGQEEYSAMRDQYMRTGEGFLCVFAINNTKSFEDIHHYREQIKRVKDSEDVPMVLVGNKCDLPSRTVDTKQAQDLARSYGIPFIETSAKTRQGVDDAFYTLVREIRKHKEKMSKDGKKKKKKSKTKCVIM
- Sequence (P62937 whole entry): as the sequence (P62937 whole entry) above
- ASSAY_EXPLANATION: Ras-Raf disruption/FRET/MOA assay (BRAF RBD, Cyclophilin A)
- Assay type: biochemical
- MEASUREMENT_PARAMETERS: read-out: KRAS G12V FRET IC50
pIC50: −log10 of the molar value.
ATTRIBUTE_MEASURED: pIC50

COMPOUND	STUDY_TARGET	RESULT
CCn1c(-c2cccnc2[C@H](C)OC)c2c3cc(ccc31)-c1cc(O)cc(c1)C[C@H](NC(=O)[C@H](C(C)C)N(C)C(=O)[C@@H]1NC[C@@H]3C[C@@H]31)C(=O)N1CCC[C@H](N1)C(=O)OCC(C)(C)C2 [Compound A217]	KRAS G12V (Homo sapiens (Human), UniProt P01116+P62937, G12V)	6.00 to 7.00
CCn1c(-c2cccnc2[C@H](C)OC)c2c3cc(ccc31)-c1cc(CF)cc(c1)C[C@H](NC(=O)[C@H](C(C)C)N(C)C(=O)[C@@H]1OCC[C@@H]1c1ccccc1)C(=O)N1CCC[C@H](N1)C(=O)OCC(C)(C)C2 [Compound A509]	KRAS G12V (Homo sapiens (Human), UniProt P01116+P62937, G12V)	6.00 to 7.00
CCn1c(-c2cccnc2[C@H](C)OC)c2c3cc(ccc31)-c1csc(n1)C[C@H](NC(=O)[C@H](C(C)C)N(C)C(=O)N1CC(Cc3cnn(C)c3)C1)C(=O)N1CCC[C@H](N1)C(=O)OCC(C)(C)C2 [Compound A500]	KRAS G12V (Homo sapiens (Human), UniProt P01116+P62937, G12V)	7.00 to 8.00

We next turn to a different compound, shown below.
// pIC50 lookup, compound = CCn1c(-c2cnccc2COC)c2c3cc(ccc31)-c1cc(O)cc(c1)C[C@H](NC(=O)[C@H](C(C)C)N(C)c1cnc(N)[nH]c1=O)C(=O)N1CCC[C@H](N1)C(=O)OCC(C)(C)C2 [Compound A63] , result: 5.00 to 6.00
